Hi there, I'd appreciate the recorded pEC50 for every entry that follows.
test system: CEM cells HIV-1 protection, formazan growth assay; assay: NCI AIDS Antiviral Assay
pEC50: −log10 of the molar value. Where a SMILES comes first, the peptide text is derived from it. [ ]: non-standard residue; d: D form. The star is where a group is joined. ξ: configuration not given here. NMeF = CN[C@@H](Cc1ccccc1)C(=O)O; NMeN = CN[C@@H](CC(N)=O)C(=O)O; NMeV = CN[C@H](C(=O)O)C(C)C; ξNMeV = CNC(C(=O)O)C(C)C; Boc = CC(C)(C)OC(=O)*; ξNMeA = CNC(C)C(=O)O; ξV = CC(C)C(N)C(=O)O

Task: Fill blank: measured pEC50 of the compound COC(=O)CCCC=C(c1cc(F)c(OC)c(C(=O)OC)c1)c1cc(F)c(OC)c(C(=O)OC)c1 is ____.
Output: 5.77

Task: And the next one, CCOC(=O)C1(C(=O)OCC)C[C@]23OCCC(=O)[C@H]2[C@H]2C(=O)OC(C)(C)O[C@]23C1 ?
Output: < 3.70

Task: Similarly, O=C(OCn1ncc2ccc([N+](=O)[O-])cc21)c1ccc(Cl)c(Cl)c1 ?
Output: < 3.70

Task: And the next one, Cc1cc(C)c(COC(=O)NS(=O)(=O)Nc2ccccc2)c(C)c1 ?
Output: < 3.70

Task: Same question for O=C(NNC(=S)Nc1ccc(Cl)cc1)C12CC3CC(CC(C3)C1)C2 please.
Output: < 3.70

Task: Another compound to look at: CCn1c(SCC(=O)NNC(=S)Nc2ccc([N+](=O)[O-])cc2)nc2ccccc2c1=O
Output: < 3.70

Task: Param item: NC1=NC(c2ccccc2)CC(c2cc(Cl)ccc2O)=N1 (stereo not given)
Output: < 3.70

Task: Next up: CCNC(=O)NNc1ncnc2c1c(-c1ccc(Cl)cc1)cn2-c1ccc(C)cc1
Output: < 3.70

Task: Now the same for O=c1cc2c(Cl)cccc2n[nH]1
Output: < 3.71

Task: Also O=C1OCCC1(Cc1ccc(Cl)cc1)Cc1ccc(Cl)cc1 , if possible.
Output: < 4.53

Task: What would you report for COC(=O)/C=C(/C)n1nc2ccccc2n1 ?
Output: < 3.70

Task: Again, but for CCOC(=O)c1[nH]c(Br)c(-c2ccc(Br)cc2)c1Br
Output: < 5.70

Task: Please give the result for CN1C(=O)c2ccccc2C1(N)c1ccccc1 (stereo not given) too.
Output: 3.18

Task: Now try O=C(COc1ccc2c(=O)cc(-c3ccc(Cl)cc3)oc2c1)N1CCN(c2ccccc2)CC1 .
Output: 6.09

Task: What do you get for O=C1CC(c2ccccc2)=NO1 ?
Output: < 3.70

Task: Another compound: COc1cc(Cc2c(OC)c(OC)cc(C)c2C(=O)O)cc(OC)c1
Output: < 3.84

Task: Now this one: c1cnc2c3cnc4sccc4c3nn2c1
Output: < 4.13

Task: # repeat for N#C/C(=C/NC(=S)N=Nc1c(O)[nH]c2ccccc12)C(N)=O
Output: < 3.70

Task: Same question for CC(O)CCC(=O)c1ccoc1 (stereo not given) please.
Output: < 2.83

Task: // repeat for CC(=O)Oc1cc(C(F)(F)F)ccc1C(=O)OC1(C)OC(=O)c2ccc(C(F)(F)F)cc2O1 (stereo not given) and report
Output: < 3.70

Task: Here is the next compound: COc1ccc(N2C(=O)/C(=C/c3ccc(N(CCC#N)CCC#N)cc3)N=C2c2ccccc2)c(OC)c1
Output: < 3.70

Task: Query CCCC(CCN)(CCN)[N+](=O)[O-] next
Output: < 3.70

Task: Let us now turn to C1=Cc2nc1c(-c1ccccc1)c1ccc([n-]1)c(-c1ccccc1)c1nc(c(-c3ccccc3)c3ccc([n-]3)c2-c2ccccc2)C=C1.[Zn+2]
Output: < 4.56

Task: Please do the same for Nc1ccccc1C(=O)CCC1C(=O)NC(=S)NC1=O as well.
Output: < 5.16

Task: Please answer likewise for CC(=O)OCC1OC(n2c3c(cc(C#N)c2=S)CCCC3)C(OC(C)=O)C(OC(C)=O)C1OC(C)=O (stereo not given)
Output: < 3.70

Task: And then COC(=O)C(C)N(C)C(=O)[C@H](CC(N)=O)N(C)C(=O)[C@@H]1CCCN1C(=O)[C@H](C(C)C)N(C)C(=O)C(C(C)C)N(C)C(=O)[C@H](Cc1ccccc1)N(C)C(=O)C(NC(=O)OC(C)(C)C)C(C)C (stereo not given in full) (Boc-[ξV][NMeF][ξNMeV][NMeV]P[NMeN][ξNMeA]-OMe) , what is it?
Output: < 4.00

Task: Note, next up: CCCCCCN(CCCCCC)C1=CC(=O)C(=O)c2ccccc21
Output: < 4.02

Task: For CC[C@@H](CCCC[C@@H]1CC[C@H]2CC(=O)C[C@@H]12)OC then?
Output: < 3.70

Task: Next: CC1(CCCO)CCCCCC(C)(CCCO)C1=O (stereo not given)
Output: < 3.70

Task: Entry CC1(N2CCOCC2)CC2C(=[N+]1[O-])CCC/C2=N/O (stereo not given) please
Output: < 3.70

Task: Next entry: CCCCOC(=O)c1cc(C(=CCC[C@H]2CC[C@@]3(C)[C@@H](CC[C@@H]4[C@@H]3CC[C@]3(C)[C@@H](C(C)CCCC(C)C)CC[C@@H]43)C2)c2cc(Cl)c(O)c(C(=O)OCCCC)c2)cc(Cl)c1O (stereo not given in full)
Output: < 4.00

Task: Request: COc1cnc2cc3c4c(cccc4c2c1)NC3=O
Output: < 4.00

Task: Next up: COC12OCC(OC1OCc1ccccc1)C1OC(C)(C)OC12 (stereo not given)
Output: < 3.70

Task: Similarly, NCCCCCCn1c(-c2ccc(Br)cc2)csc1=Nc1ccccc1 ?
Output: < 3.70

Task: Could you do the same for CN1CCC2(CC1)C(=NC1CCCCC1)NC(=S)N2c1ccccc1 , please?
Output: < 4.00

Task: Now try O=C1CCC2(CCCCC2)N1 .
Output: < 3.70

Task: Continue with CCC12C=CCN3CC[C@]4(C(=C(C(=O)OC)[C@@H]1Nc1ncnc5c1ncn5C1OC(COC(C)=O)C(OC(C)=O)C1OC(C)=O)Nc1ccccc14)C32 (stereo not given in full)
Output: < 4.86

Task: Next up: CC/C(=N/O)c1ccc2[nH]c3c(C)cc([N+](=O)[O-])c(C)c3c2c1
Output: < 4.92

Task: Similarly, CC(=O)c1ccc2c(c1)N(CCCN(C)C)c1ccccc1S2 ?
Output: < 3.70

Task: Field entry: COC(=O)CCC(=O)CC(=O)C(=O)Nc1c(Cl)cc([N+](=O)[O-])cc1Cl
Output: < 4.74
